experimental-target: recombinant full length HPK-1 enzyme (Homo sapiens (Human), UniProt Q92918)
Sequence (Q92918 whole entry, species assumed): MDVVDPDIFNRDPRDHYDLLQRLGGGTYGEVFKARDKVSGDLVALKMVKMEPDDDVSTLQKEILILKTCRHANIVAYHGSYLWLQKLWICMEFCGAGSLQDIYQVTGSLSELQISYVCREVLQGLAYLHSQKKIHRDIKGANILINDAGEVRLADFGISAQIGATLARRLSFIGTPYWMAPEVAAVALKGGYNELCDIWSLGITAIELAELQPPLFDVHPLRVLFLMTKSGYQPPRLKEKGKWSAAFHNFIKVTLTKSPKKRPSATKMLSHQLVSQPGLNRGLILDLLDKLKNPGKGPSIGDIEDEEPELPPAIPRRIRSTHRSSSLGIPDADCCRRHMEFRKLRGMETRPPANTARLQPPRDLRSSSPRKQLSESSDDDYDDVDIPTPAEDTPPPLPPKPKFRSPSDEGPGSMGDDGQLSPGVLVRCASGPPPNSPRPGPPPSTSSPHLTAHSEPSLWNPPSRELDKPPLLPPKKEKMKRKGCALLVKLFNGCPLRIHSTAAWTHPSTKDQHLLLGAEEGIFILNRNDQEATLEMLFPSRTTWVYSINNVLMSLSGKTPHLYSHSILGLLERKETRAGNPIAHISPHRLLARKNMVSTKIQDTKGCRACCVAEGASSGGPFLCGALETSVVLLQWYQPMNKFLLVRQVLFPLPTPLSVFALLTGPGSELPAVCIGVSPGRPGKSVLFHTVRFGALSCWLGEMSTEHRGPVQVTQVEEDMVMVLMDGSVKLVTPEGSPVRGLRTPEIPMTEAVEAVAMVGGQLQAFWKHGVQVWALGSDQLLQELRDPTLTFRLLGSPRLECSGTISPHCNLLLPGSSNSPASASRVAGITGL
assay-comment: HPK-1 biochemical enzyme assay (ADP-Glo kinase inhibition)
condition-notes: recombinant full length HPK-1 6.8 nM, 10 μM ATP, 12.5 μM MBP, 30 mins at 25° C.
pIC50: −log10 of the molar value.
Answer each item with its documented pIC50.

Consider the reported pIC50 for these molecules:
[[record]]
molecule = "Cc1c(Nc2cc[nH]c(=O)c2C(=O)Nc2ccc(N3CCC(N(C)C(=O)C(C)C)C3)cc2)cnc2c1NCCO2 (centres unmarked)"
experimental_target = "recombinant full length HPK-1 enzyme (Homo sapiens (Human), UniProt Q92918)"
readout_label = "pIC50"
measured = "7.00 to 8.00"

[[record]]
molecule = "CCN1CCN(c2ccc(NC(=O)c3c(Nc4cnc5c(c4C)NCCO5)cc[nH]c3=O)cc2F)CC1"
experimental_target = "recombinant full length HPK-1 enzyme (Homo sapiens (Human), UniProt Q92918)"
readout_label = "pIC50"
measured = "≥ 8.00"

[[record]]
molecule = "Cc1c(Nc2cc[nH]c(=O)c2C(=O)Nc2ccc(N3C[C@@H]4C[C@H]3CN4C)cc2)cnc2c1NCCO2"
experimental_target = "recombinant full length HPK-1 enzyme (Homo sapiens (Human), UniProt Q92918)"
readout_label = "pIC50"
measured = "7.00 to 8.00"

[[record]]
molecule = "COCCN1CCN(c2ccc(NC(=O)c3c(Nc4cnc5c(c4C)NCC(C)O5)cc[nH]c3=O)cc2F)CC1 (centres unmarked)"
experimental_target = "recombinant full length HPK-1 enzyme (Homo sapiens (Human), UniProt Q92918)"
readout_label = "pIC50"
measured = "≥ 8.00"

[[record]]
molecule = "CCN1CCN(c2ccc(NC(=O)c3c(Nc4cnc5c(c4C)NCC(C)O5)cc[nH]c3=O)cc2F)CC1 (centres unmarked) [Example 361]"
experimental_target = "recombinant full length HPK-1 enzyme (Homo sapiens (Human), UniProt Q92918)"
readout_label = "pIC50"
measured = "7.00 to 8.00"

[[record]]
molecule = "Cc1c(Nc2cc[nH]c(=O)c2C(=O)Nc2ccc(N3CCN(C4COC4)CC3)cc2)cnc2c1NCCO2"
experimental_target = "recombinant full length HPK-1 enzyme (Homo sapiens (Human), UniProt Q92918)"
readout_label = "pIC50"
measured = "≥ 8.00"

[[record]]
molecule = "Cc1c(Nc2cc[nH]c(=O)c2C(=O)Nc2ccc(N3CCN(C(C)C)CC3)cc2)cnc2c1NCC(C)(C)O2"
experimental_target = "recombinant full length HPK-1 enzyme (Homo sapiens (Human), UniProt Q92918)"
readout_label = "pIC50"
measured = "≥ 8.00"

[[record]]
molecule = "Cc1c(Nc2cc[nH]c(=O)c2C(=O)Nc2ccc(N3CCN(C)CC3)cc2)cnc2c1NCC(C)O2 (centres unmarked) [Example 125]"
experimental_target = "recombinant full length HPK-1 enzyme (Homo sapiens (Human), UniProt Q92918)"
readout_label = "pIC50"
measured = "7.00 to 8.00"

[[record]]
molecule = "Cc1c(Nc2cc[nH]c(=O)c2C(=O)Nc2ccc(N3CCN(C(=O)C4C(C)(C)C4(C)C)CC3)cc2)cnc2c1NCCO2"
experimental_target = "recombinant full length HPK-1 enzyme (Homo sapiens (Human), UniProt Q92918)"
readout_label = "pIC50"
measured = "≥ 8.00"

[[record]]
molecule = "Cc1c(Nc2cc[nH]c(=O)c2C(=O)Nc2ccc(N3CCN(C(=O)C4CCN(C)C4)CC3)cc2)cnc2c1NCCO2 (centres unmarked)"
experimental_target = "recombinant full length HPK-1 enzyme (Homo sapiens (Human), UniProt Q92918)"
readout_label = "pIC50"
measured = "7.00 to 8.00"


# per-item lookup of pIC50; items listed below
1. Cc1c(Nc2cc[nH]c(=O)c2C(=O)Nc2ccc(N3CCOCC3)cc2)cnc2c1NCCO2
2. Cc1c(Nc2cc[nH]c(=O)c2C(=O)Nc2ccc(-c3ccnn3C(C)C)cc2)cnc2c1NCCO2

1. 7.00 to 8.00
2. 7.00 to 8.00

====

experimental-target: recombinant full length HPK-1 enzyme (Homo sapiens (Human))
assay-comment: HPK-1 biochemical enzyme assay (ADP-Glo kinase inhibition)
condition-notes: recombinant full length HPK-1 6.8 nM, 10 μM ATP, 12.5 μM MBP, 30 mins at 25° C.
pIC50: −log10 of the molar value.
readout-label: pIC50

Consider the reported pIC50 for these molecules:
[[record]]
molecule = "Cc1cc(NC(=O)c2c(Nc3cnc4c(c3C)NCC(C)O4)cc[nH]c2=O)ccc1N1CCN(C)CC1 (stereo not shown) [Example 200]"
readout_label = "pIC50"
measured = "≥ 8.00"

[[record]]
molecule = "Cc1c(Nc2cc[nH]c(=O)c2C(=O)Nc2ccc(C3CCCCC3)cc2)cnc2c1NCCO2 [Example 330]"
readout_label = "pIC50"
measured = "6.00 to 7.00"

[[record]]
molecule = "Cc1c(Nc2cc[nH]c(=O)c2C(=O)Nc2ccc(N3CCC(O)(CN(C)C)CC3)cc2)cnc2c1NCCO2 [Example 375]"
readout_label = "pIC50"
measured = "≥ 8.00"

[[record]]
molecule = "Cc1c(Nc2cc[nH]c(=O)c2C(=O)Nc2ccc(N3CCN(C)CC3)cc2)cnc2c1NCC(C)O2 (stereo not shown) [Example 165]"
readout_label = "pIC50"
measured = "≥ 8.00"

[[record]]
molecule = "Cc1c(Nc2cc[nH]c(=O)c2C(=O)Nc2ccc(N3CCN(C(C)C)CC3)c(F)c2)cnc2c1NCC(C)O2 (stereo not shown) [Example 183]"
readout_label = "pIC50"
measured = "≥ 8.00"


# per-item lookup of pIC50; items listed below
1. Cc1c(Nc2cc[nH]c(=O)c2C(=O)Nc2ccc(C3CCN(C)CC3)cc2)cnc2c1NCCO2 [Example 97]
2. Cc1c(Nc2cc[nH]c(=O)c2C(=O)Nc2ccc(N3CCN(C(=O)C4CC(F)(F)C4)CC3)cc2)cnc2c1NCCO2 [Example 318]
3. Cc1c(Nc2cc[nH]c(=O)c2C(=O)Nc2ccc(N3CCN(C)CC3)cc2)cnc2c1NCC(F)O2 (stereo not shown) [Example 198]
4. Cc1c(Nc2cc[nH]c(=O)c2C(=O)Nc2ccc3nc(NC(=O)[C@@H]4C[C@@H]4F)sc3c2)cnc2c1NCCO2 [Example 296]
5. Cc1c(Nc2cc[nH]c(=O)c2C(=O)Nc2ccc(N3CCN(C)CC3)c(CCO)c2)cnc2c1NCCO2 [Example 394]
6. Cc1c(Nc2cc[nH]c(=O)c2C(=O)Nc2ccc(N3CCN(C(C)C)CC3)c(F)c2)cnc2c1NCCO2 [Example 134]
7. Cc1c(Nc2cc[nH]c(=O)c2C(=O)Nc2ccc(N3CC4CCC3CN4C)cc2)cnc2c1NCCO2 (stereo not shown) [Example 235]

1. ≥ 8.00
2. ≥ 8.00
3. 7.00 to 8.00
4. 6.00 to 7.00
5. 7.00 to 8.00
6. ≥ 8.00
7. ≥ 8.00

# per-item lookup of pIC50; items listed below
1. Cc1c(Nc2cc[nH]c(=O)c2C(=O)Nc2ccc(N3CCC(C)(CO)CC3)cc2)cnc2c1NCCO2 [Example 301]
2. Cc1c(Nc2cc[nH]c(=O)c2C(=O)Nc2ccc(N3CCN(C)CC3)cc2)cnc2c1NCC(C)O2 (stereo not shown) [Example 164]
3. CC(=O)Nc1ccc(NC(=O)c2c(Nc3cnc4c(c3C)NCCO4)cc[nH]c2=O)cn1 [Example 243]
4. Cc1c(Nc2cc[nH]c(=O)c2C(=O)Nc2ccc3c(c2)NCCC3)cnc2c1NCCO2 [Example 246]

1: 7.00 to 8.00; 2: 7.00 to 8.00; 3: 6.00 to 7.00; 4: 7.00 to 8.00

====

experimental-target: recombinant full length HPK-1 enzyme (Homo sapiens (Human), UniProt Q92918)
assay-comment: HPK-1 biochemical enzyme assay (ADP-Glo kinase inhibition)
condition-notes: recombinant full length HPK-1 6.8 nM, 10 μM ATP, 12.5 μM MBP, 30 mins at 25° C.
pIC50: −log10 of the molar value.
readout-label: pIC50

Consider the reported pIC50 for these compounds:
[[record]]
compound = "Cc1c(Nc2cc[nH]c(=O)c2C(=O)Nc2ccc(N3CCN(C(=O)C4CN(C)C4)CC3)cc2)cnc2c1NCCO2 [Example 373]"
measured = "7.00 to 8.00"

[[record]]
compound = "Cc1c(Nc2cc[nH]c(=O)c2C(=O)Nc2ccc(N3CCN(C(=O)C4CC4(C)C)CC3)cc2)cnc2c1NCCO2 (stereo not drawn) [Example 309]"
measured = "≥ 8.00"

[[record]]
compound = "Cc1c(Nc2cc[nH]c(=O)c2C(=O)Nc2ccc3c(c2)C(=O)NCC3)cnc2c1NCCO2 [Example 260]"
measured = "6.00 to 7.00"

[[record]]
compound = "Cc1c(Nc2cc[nH]c(=O)c2C(=O)Nc2ccc(N3CCS(=O)(=O)CC3)cc2)cnc2c1NCCO2 [Example 138]"
measured = "≥ 8.00"

[[record]]
compound = "Cc1c(Nc2cc[nH]c(=O)c2C(=O)Nc2ccc3sc(NC(=O)[C@@H]4C[C@@H]4F)nc3c2)cnc2c1NCCO2 [Example 297]"
measured = "6.00 to 7.00"

[[record]]
compound = "Cc1c(Nc2cc[nH]c(=O)c2C(=O)Nc2ccc(N3CCN(C)C(=O)C3)cc2)cnc2c1NCCO2 [Example 272]"
measured = "7.00 to 8.00"

[[record]]
compound = "Cc1c(Nc2cc[nH]c(=O)c2C(=O)Nc2ccc(CN3CCN(C)CC3)cc2)cnc2c1NCCO2 [Example 206]"
measured = "7.00 to 8.00"

[[record]]
compound = "Cc1c(Nc2cc[nH]c(=O)c2C(=O)Nc2ccc(N3CCN(c4ccncc4)CC3)cc2)cnc2c1NCCO2 [Example 288]"
measured = "≥ 8.00"


# per-item lookup of pIC50; items listed below
1. CCC(=O)N1CCN(c2ccc(NC(=O)c3c(Nc4cnc5c(c4C)NCCO5)cc[nH]c3=O)cc2)C[C@H]1C [Example 347]
2. COc1c(Nc2cc[nH]c(=O)c2C(=O)Nc2ccc(N3CCN(C)CC3)cc2)cnc2c1NCCO2 [Example 132]
3. Cc1c(Nc2cc[nH]c(=O)c2C(=O)Nc2ccc(Cc3ccncc3)cc2)cnc2c1NCCO2 [Example 233]

1. ≥ 8.00
2. 7.00 to 8.00
3. 7.00 to 8.00

Provenance of the data: patent US20250282794A1
